For each record, write down the corresponding MMC.
Molecular target: Quinolone resistance protein NorA (Staphylococcus aureus)
Sequence (whole entry): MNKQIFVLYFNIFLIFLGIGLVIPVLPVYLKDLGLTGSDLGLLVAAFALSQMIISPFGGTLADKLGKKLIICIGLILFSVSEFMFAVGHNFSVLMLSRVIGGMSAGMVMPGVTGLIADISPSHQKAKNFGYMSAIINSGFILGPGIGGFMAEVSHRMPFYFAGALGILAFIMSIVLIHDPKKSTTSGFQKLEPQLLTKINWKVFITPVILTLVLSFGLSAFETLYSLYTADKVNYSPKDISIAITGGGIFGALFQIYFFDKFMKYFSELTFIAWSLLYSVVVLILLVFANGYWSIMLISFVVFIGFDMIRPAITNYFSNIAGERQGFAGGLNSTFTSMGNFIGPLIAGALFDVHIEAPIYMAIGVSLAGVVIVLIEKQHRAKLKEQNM
Assay: Inhibition of NorA in fluoroquinolone-resistant Staphylococcus aureus 1199B assessed as minimum modulatory concentration require to potentiate 2 ug/ml ciprofloxacin-induced antibacterial activity
Just the number in µM, nothing appended.

// MMC value for `CCCCCOc1ccc(B(O)O)cn1` : 306

Per the records, this compound ( `OB(O)c1ccc(OCCCCc2ccccc2)nc1` ) has MMC equal to 14.8

Lab book: MMC of `OB(O)c1ccc(OCCc2ccccc2)nc1` noted as 65.8

Per the records, this compound ( `CCCCCCCOc1ccc(B(O)O)cn1` ) has MMC equal to 33.7

// MMC lookup, compound = `OB(O)c1ccc(Oc2ccc(Cl)cc2Cl)nc1` , result: 56.4

Recorded result, `OB(O)c1ccc(NCc2ccccc2)nc1` , MMC: 561

MMC recorded for this compound, `OB(O)c1ccc(OCc2ccc(Cl)cc2)nc1` , is 121

// recorded MMC for `OB(O)c1ccc(Oc2ccccc2)nc1` : 298

get_value(item= `OB(O)c1ccc(OCCCCCc2ccccc2)nc1` , readout=MMC) returns 14

MMC reported for this compound `OB(O)c1ccc(OCc2ccc(F)cc2)nc1` : 130

Query `CCCCOc1ccc(B(O)O)cn1` yields MMC of 328

###

experiment: Cytotoxicity against human KB cells assessed as growth inhibition at 10^-6 M after 72 hrs by MTS assay relative to control; assay type: cell-based; conditions: read-out: GI
parameter_measured: inhibition at 72 h, 1 µM (%)
The reply should contain only the number, in %.

In plain terms, `OB(O)c1ccc(OCc2ccc(Cl)c(Cl)c2)nc1` has a documented inhibition at 72 h, 1 µM of 0

Sample `OB(O)c1ccc(OCCCCCc2ccccc2)nc1` ; inhibition at 72 h, 1 µM observed: 6

Quick note, inhibition at 72 h, 1 µM for `OB(O)c1ccc(OCCCc2ccccc2)nc1` landed at 9

###

Assign MMC to each entry below.
biological target: Quinolone resistance protein NorA (Staphylococcus aureus) (UniProt P0A0J7); experiment: Inhibition of NorA in fluoroquinolone-resistant Staphylococcus aureus 1199B assessed as minimum modulatory concentration require to potentiate 2 ug/ml ciprofloxacin-induced antibacterial activity
Number only, in µM; omit the unit.

Form: compound = `OB(O)c1ccc(OCCCc2ccccc2)nc1` ; MMC = 15.6

Form: compound = `OB(O)c1ccc(OCc2ccc(Cl)c(Cl)c2)nc1` ; MMC = 3.35

Please fill in: MMC reported for `CCCCCCOc1ccc(B(O)O)cn1` = 71.7

Lab book: MMC of `Cc1cc(B(O)O)cnc1OCc1ccccc1` noted as 65.8

Summary for this compound, `COC(=O)[C@H]1[C@H]2C[C@@H]3c4[nH]c5cc(OC)ccc5c4CCN3C[C@H]2C[C@@H](OC(=O)c2cc(OC)c(OC)c(OC)c2)[C@@H]1OC` : MMC is 6.57

Note to self: MMC recorded for `OB(O)c1ccc(OCCCCCCCc2ccccc2)nc1` was 12.8

So, `OB(O)c1ccc(OCc2ccccc2)nc1` ? Its MMC was 69.8

MMC in this record for `OB(O)c1ccc(SCc2ccccc2)nc1` : 65.3

Value of MMC reported for the compound `OB(O)c1ccc(OCCCCCCc2ccccc2)nc1` is 13.4

Where do these numbers come from? They come from ChEMBL document CHEMBL3414455.
